TARGET_DESC: Concanavalin-A (Canavalia ensiformis) (UniProt P02866)
Sequence (P02866 whole entry, looked up): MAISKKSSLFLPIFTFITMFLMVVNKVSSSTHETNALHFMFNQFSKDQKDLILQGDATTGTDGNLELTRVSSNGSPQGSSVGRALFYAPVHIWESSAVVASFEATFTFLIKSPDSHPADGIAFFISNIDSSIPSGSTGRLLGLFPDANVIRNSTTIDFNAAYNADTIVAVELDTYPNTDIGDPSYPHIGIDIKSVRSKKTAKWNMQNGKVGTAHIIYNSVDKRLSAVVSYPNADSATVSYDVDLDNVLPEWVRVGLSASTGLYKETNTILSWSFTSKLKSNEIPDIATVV
ASSAY_NAME: compounds binding concanavalin A lectin – biochemical, small-molecule microarray, Alexa647 label, 635 nm, artefact control for SMM control protein annotation, primary screen (AID 1127);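 also: z combines 667 nm emission intensity with signal-to-noise across three replicate slides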
CONDITION_DESCRIPTION: ConA-A647 binding fluorescence, higher = more signal
Overview of recorded composite z-score for various molecules
API doc: respond with a numeric literal and nothing else, no unit.

Here are 2 molecules together with their reported answers.
CCOC(=O)C1=CCC(c2cccc(Cl)c2)O1 (stereo not drawn) ... 0.16
O=C1O[C@H](c2ccccc2)[C@H](c2ccccc2)N2[C@H]1[C@@H](C(=O)N1CCN(c3ncccn3)CC1)[C@]1(C(=O)Nc3ccc(C#CCCO)cc31)[C@H]2c1ccc(OCCO)cc1 ... 1.11

Turning now to a further molecule:
Task item: Enter measured composite z-score, system Concanavalin-A (Canavalia ensiformis) (UniProt P02866), for the molecule shown: COc1cccc(C)c1NC(=O)O[C@H]1[C@H](OC(=O)Nc2ccccc2)[C@H](OC(=O)Nc2ccccc2)[C@@H](OC)O[C@@H]1CO
Reply: 1.17

Data origin: PubChem BioAssay
